- Tested on: HEL 299 fibroblasts (ATCC-CCL-137)
- Method Description: Cell viability and proliferation assay (WST8/CCK-8)
- Type: cell-based, human
- Condition Details: ligand at 100 μM; mean values and standard deviations
# Cell proliferation, HEL 299 (Table S1) annotations
Measured Property: Cell proliferation, HEL 299 (Table S1)

                                   compound               target_or_test_system  assay_result
0  CCNC(=S)N/N=C/c1cc(S(=O)(=O)[O-])cc(OC)c1O.[Na+] [NaH2L5]  HEL 299 fibroblasts (ATCC-CCL-137)          90.0
1  COc1cc(S(=O)(=O)[O-])cc(/C=N/NC(N)=S)c1O.[Na+] [NaH2L4]  HEL 299 fibroblasts (ATCC-CCL-137)          85.6
2  CCNC(=S)N/N=C/c1cccc(OC)c1O [Compound H2L2]  HEL 299 fibroblasts (ATCC-CCL-137)          97.2
3  COc1cc(S(=O)(=O)[O-])cc(/C=N/NC(N)=O)c1O.[Na+] [NaH2L6]  HEL 299 fibroblasts (ATCC-CCL-137)          90.3
4  CCCCCCCC(=O)N/N=C/c1cc(S(=O)(=O)[O-])cc(OC)c1O.[Na+] [NaH2L7]  HEL 299 fibroblasts (ATCC-CCL-137)          87.6

src = paper PMC12155845
